Target: T1, Mouse IL-11 (mouse, UniProt P47873 22-199, limits assumed)
T1 construct: also called murine IL-11; recombinant murine IL-11
T1 sequence (looked up): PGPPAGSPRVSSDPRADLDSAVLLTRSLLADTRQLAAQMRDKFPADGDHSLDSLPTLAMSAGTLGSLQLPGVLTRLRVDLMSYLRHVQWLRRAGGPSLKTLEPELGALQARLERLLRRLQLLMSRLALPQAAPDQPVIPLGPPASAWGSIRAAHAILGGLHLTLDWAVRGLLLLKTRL
Experiment: ELISA
MEASURED_PARAMETER: mIL11 - average signal
Format: numeric value only, no unit, no commentary.

Query YU100-A12 (antibody) QVQLVESGGGVVQPGRSLRLSCAASGFTFSSYGMHWVRQAPGKGLEWVAVISYDGSNKYYADSVKGRFTISRDNSKNTLYLQMNSLRAEDTAVYYCAKIGATDPLDYWGQGTLVTVSSGSASAPKLEEGEFSEARVLPVLTQPRSVSGSPGQSVTISCTGTSSDVGGYNYVSWYQQHPGKAPKLMIYDVSKRPSGVPDRFSGSKSGDTASLTISGLQAEDEADYYCSSYAGSYTWVFGGGTKLTVL yields mIL11 - average signal of 0.388

Query YU100-E04 (antibody) QVQLQQSGGGVVQPGRSLRLSCAASGFTFSSYGMHWVRQAPGKGLEWVAVISYDGSNKYYADSVKGRFTISRDNSKNTLYLQMNSLRAEDTAVYYCAKIGATDPLDYWGQGTLVTVSSGSASAPKLEEGEFSEARVQSALTQPRSVSGSPGQSVTISCTGTSSDVGGYNYVSWYQQHPGKTPKLMIYDVTKRPSGVPDHFSGSKSGNTASLTISGLQAEDEADYYCCSYAGSHIWVFGGGTKLTVLGQPKAAPSVTLFPPSS yields mIL11 - average signal of 0.472

Query YU100-F06 (antibody) QVQLVESGGGVVQPGRSLRLSCAASGFTFSSYGMHWVRQAPGKGLEWVAVISYDGSNKYYADSVKGRFTISRDNSKNTLYLQMNSLRAEDTAVYYCARIMGYDYGDYDVVDYWGQGTLVTVSSGSASAPKLEEGEFSEARVQSALTQPRSVSGSPGQSVTISCTGSSSDVGGYNFVSWYRQHPGEAPKLVIFDVNKRPSGVPDRFSGSKSGNTASLTISGLQTEDEADYFCCSYAGGYTWVFGGGTKVTVV yields mIL11 - average signal of 0.481

Query YU100-G01 (antibody) QVQLVQSGGGVVQPGRSLRLSCAASGFTFSSYGMHWVRQAPGKGLEWVAVISYDGSNKYYADSVKGRFTISRDNSKNTLYLQMNSLRAEDTAVYYCAKIGATDPLDYWGQGTLVTVSSGSASAPKLEEGEFSEARVQSALTQPRSVSASPGQSVTISCTGTSSDVGAYNYVSWYQQHPGKAPKLMLYDVNKRPSGVPDRFSGSKSGNTASLTISRLQAEDEADYYCCSYAGSYTWVFGGGTKLTVL yields mIL11 - average signal of 0.31

Query YU100-H11 (antibody) QVQLVQSGGGVVQPGRSLRLSCAASGFTFSSYGMHWVRQAPGKGLEWVAVISYDGSNKYYADSVKGRFTISRDNSKNTLYLQMNSLRAEDTAVYYCAKIGATDPLDYWGQGTLVTVSSGSASAPKLEEGEFSEARVQSALTQPASVSGSPGQSITISCTGTSSDVGGYNYVSWYQQHPGKAPKLMIYDVSNRPSGVSNRFSGSKSGNTASLTISGLQAEDEADYYCCSYAGSYTWVFGGGTKLTVL yields mIL11 - average signal of 0.629

Query YU100-H02 (antibody) QVQLQQSGGGVVQPGRSLRLSCAASGFTFSSYGMHWVRQAPGKGLEWVAVISYDGSNKYYADSVKGRFTISRDNSKNTLYLQMNSLRAEDTAVYYCARIMGYDYGDYDVVDYWGQGTLVTVSSGSASAPKLEEGEFSEARVQSALTQPRSVSRSPGQSVTISCTGTSSDVGTYNYVSWYQQHPGKAPKLMIYDVSKRPSGVPDRFSGSKSGNTASLTISGLQAEDEADYYCCSYAGFYTWVFGGGTKLTVL yields mIL11 - average signal of 0.188

Query YU100-B08 (antibody) EVQLVQSGGGVVQPGRSLRLSCAASGFTFSSYGMHWVRQAPGKGLEWVAVISYDGSNKYYADSVKGRFTISRDNSKNTLYLQMNSLRAEDTAVYYCAKIGATDPLDYWGQGTLVTVSSGSASAPKLEEGEFSEARVQSALTQPASVSGSPGQSITISCTGTSSDVGGYNYVSWYQQHPGKVPRLLIYDVSNRPSGVSTRFSGSKSGNTASLTISGLQGEDEAEYYCSSFTSSTTWVFGGGTKLTVL yields mIL11 - average signal of 0.423

Query YU112-G01 (antibody) QVQLVESGGGVVQPGRSLRLSCAASGFTFSSYGMHWVRQAPGKGLEWVAVISYDGSNKYYADSVKGRFTISRDNSKNTLYLQMNSLRAEDTAVYYCAKLSGPNGVDYWGQGTLVTVSSGSASAPKLEEGEFSEARVQSALTQPRSVSGSPGQSVTISCTGTISDVGGYNYVSWYQQHPGKAPKLMIYDVTKRPSGVPDRFSGSKSGNTASLTISGLQAEDEAGYYCSSYAGSYTWVFGGGTELTVL yields mIL11 - average signal of 0.794

Query YU100-G07 (antibody) QVQLVESGGGVVQPGRSLRLSCAASGFTFSSYGMHWVRQAPGKGLEWVAVISYDGSNKYYADSVKGRFTISRDNSKNTLYLQMNSLRAEDTAVYYCAKIGATDPLDYWGQGTLVTVSSGSASAPKLEEGEFSEARVQSALTQPASVSGSPGQSITISCTGTSSDVGAYDYVSWYQQHPGKAPKLMIYDVTNRPSGVSNRFSGSKSGNTASLTISGLQAEDEADYYCASYTRSSVWVFGGGTKLTVL yields mIL11 - average signal of 0.206
